molecular target: Human ADAM17 (Homo sapiens); construct: purchased R&D Systems; experiment: Cleavage of GPIbα-based substrate peptide by ADAM17 (LC/MS/MS); format: biochemical; details: read-out: IC50, inhibition of C-terminal cleavage of the GPIbα sequence by ADAM17
Sequence (P78536 215-824): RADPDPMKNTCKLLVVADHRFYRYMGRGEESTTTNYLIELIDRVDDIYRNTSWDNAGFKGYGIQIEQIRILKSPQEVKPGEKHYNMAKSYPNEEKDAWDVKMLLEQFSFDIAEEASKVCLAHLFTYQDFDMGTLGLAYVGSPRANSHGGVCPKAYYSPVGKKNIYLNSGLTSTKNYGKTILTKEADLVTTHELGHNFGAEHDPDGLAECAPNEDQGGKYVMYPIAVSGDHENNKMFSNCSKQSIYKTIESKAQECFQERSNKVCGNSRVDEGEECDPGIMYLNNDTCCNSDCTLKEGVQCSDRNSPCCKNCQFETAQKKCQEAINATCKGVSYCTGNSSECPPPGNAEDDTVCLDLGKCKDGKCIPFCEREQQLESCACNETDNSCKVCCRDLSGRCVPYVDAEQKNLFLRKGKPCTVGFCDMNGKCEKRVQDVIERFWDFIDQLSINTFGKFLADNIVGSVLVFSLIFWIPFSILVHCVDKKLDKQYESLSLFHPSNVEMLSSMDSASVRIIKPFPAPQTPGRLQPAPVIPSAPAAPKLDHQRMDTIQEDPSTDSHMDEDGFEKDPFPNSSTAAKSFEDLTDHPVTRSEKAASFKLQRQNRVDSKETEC
PROPERTY NAME: pIC50
Reminder that pIC50 means the negative base-10 logarithm of the concentration expressed in mol/L.

Task: Tell me the measured pIC50 of CNC(=O)[C@H](Cc1c[nH]c2ccccc12)NC(=O)[C@@H](CC(=O)NO)CC(C)C [GM-6001] , please.
Output: 7.27

* * *

biological target: human MMP8 (Homo sapiens, UniProt P22894)
Sequence (P22894 101-467): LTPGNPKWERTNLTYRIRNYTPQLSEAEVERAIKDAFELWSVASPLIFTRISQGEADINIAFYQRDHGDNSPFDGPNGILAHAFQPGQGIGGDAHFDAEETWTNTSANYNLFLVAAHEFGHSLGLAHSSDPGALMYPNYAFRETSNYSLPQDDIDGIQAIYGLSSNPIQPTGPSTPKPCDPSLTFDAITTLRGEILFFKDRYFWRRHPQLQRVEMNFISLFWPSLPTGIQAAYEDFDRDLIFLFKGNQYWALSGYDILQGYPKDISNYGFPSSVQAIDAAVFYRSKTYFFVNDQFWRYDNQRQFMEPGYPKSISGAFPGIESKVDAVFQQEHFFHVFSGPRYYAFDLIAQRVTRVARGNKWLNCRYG
PROPERTY NAME: IC50 (µM)
Report the value in µM with no unit label.

Task: Kindly state the measured IC50 obtained for CC#CCOc1ccc(S(=O)(=O)CC(c2ccc(CNS(C)(=O)=O)cc2)N(O)C=O)cc1 (stereo not shown) with human MMP8 (Homo sapiens, UniProt P22894).
Output: 2.2
